- Test system: Escherichia coli TOP10;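 note: peptides expressed intracellularly from a pBAD plasmid library in pooled LB shake-flask culture, induced with 0.3% L-arabinose, DNA abundance read by NGS, three biological replicates, DESeq2 with apeglm shrinkage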
- ASSAY EXPLANATION: shrunken log2 fold change of peptide-encoding DNA abundance (4.5 h post-induction vs induction); higher = less antimicrobial activity (less host growth inhibition)
- PROTOCOL CONDITIONS: time post-induction: 4.5 h; library: site-saturation at positions 5, 18, 19, 20
shrunken log2 fold change by entry:

[
  {
    "ITEM SEQUENCE": "RRIRSRPPRLPRPRPRPSGFPRP",
    "TEST SYSTEM": "Escherichia coli TOP10",
    "shrunken log2 fold change": 0.0519
  },
  {
    "ITEM SEQUENCE": "RRIRWRPPRLPRPRPRPDTAPRP",
    "TEST SYSTEM": "Escherichia coli TOP10",
    "shrunken log2 fold change": -0.192
  },
  {
    "ITEM SEQUENCE": "RRIRDRPPRLPRPRPRPERVPRP",
    "TEST SYSTEM": "Escherichia coli TOP10",
    "shrunken log2 fold change": 0.388
  },
  {
    "ITEM SEQUENCE": "RRIRHRPPRLPRPRPRPLYSPRP",
    "TEST SYSTEM": "Escherichia coli TOP10",
    "shrunken log2 fold change": -0.792
  },
  {
    "ITEM SEQUENCE": "RRIRIRPPRLPRPRPRPVMQPRP",
    "TEST SYSTEM": "Escherichia coli TOP10",
    "shrunken log2 fold change": -0.00187
  },
  {
    "ITEM SEQUENCE": "RRIRIRPPRLPRPRPRPQCTPRP",
    "TEST SYSTEM": "Escherichia coli TOP10",
    "shrunken log2 fold change": -0.769
  },
  {
    "ITEM SEQUENCE": "RRIRERPPRLPRPRPRPCNEPRP",
    "TEST SYSTEM": "Escherichia coli TOP10",
    "shrunken log2 fold change": -1.12
  },
  {
    "ITEM SEQUENCE": "RRIRNRPPRLPRPRPRPPVWPRP",
    "TEST SYSTEM": "Escherichia coli TOP10",
    "shrunken log2 fold change": 0.476
  },
  {
    "ITEM SEQUENCE": "RRIRWRPPRLPRPRPRPQYWPRP",
    "TEST SYSTEM": "Escherichia coli TOP10",
    "shrunken log2 fold change": -0.184
  },
  {
    "ITEM SEQUENCE": "RRIRCRPPRLPRPRPRPTWAPRP",
    "TEST SYSTEM": "Escherichia coli TOP10",
    "shrunken log2 fold change": 0.118
  },
  {
    "ITEM SEQUENCE": "RRIRLRPPRLPRPRPRPHRSPRP",
    "TEST SYSTEM": "Escherichia coli TOP10",
    "shrunken log2 fold change": 0.0989
  },
  {
    "ITEM SEQUENCE": "RRIRTRPPRLPRPRPRPWGIPRP",
    "TEST SYSTEM": "Escherichia coli TOP10",
    "shrunken log2 fold change": -0.0774
  },
  {
    "ITEM SEQUENCE": "RRIRCRPPRLPRPRPRPPDIPRP",
    "TEST SYSTEM": "Escherichia coli TOP10",
    "shrunken log2 fold change": 0.409
  },
  {
    "ITEM SEQUENCE": "RRIRLRPPRLPRPRPRPDKPPRP",
    "TEST SYSTEM": "Escherichia coli TOP10",
    "shrunken log2 fold change": -0.228
  },
  {
    "ITEM SEQUENCE": "RRIRYRPPRLPRPRPRPSPPPRP",
    "TEST SYSTEM": "Escherichia coli TOP10",
    "shrunken log2 fold change": -0.469
  },
  {
    "ITEM SEQUENCE": "RRIRFRPPRLPRPRPRPYSCPRP",
    "TEST SYSTEM": "Escherichia coli TOP10",
    "shrunken log2 fold change": -0.388
  },
  {
    "ITEM SEQUENCE": "RRIRDRPPRLPRPRPRPWSMPRP",
    "TEST SYSTEM": "Escherichia coli TOP10",
    "shrunken log2 fold change": -0.0018
  },
  {
    "ITEM SEQUENCE": "RRIRRRPPRLPRPRPRPWCHPRP",
    "TEST SYSTEM": "Escherichia coli TOP10",
    "shrunken log2 fold change": -0.0754
  },
  {
    "ITEM SEQUENCE": "RRIRARPPRLPRPRPRPRDLPRP",
    "TEST SYSTEM": "Escherichia coli TOP10",
    "shrunken log2 fold change": -0.162
  },
  {
    "ITEM SEQUENCE": "RRIRGRPPRLPRPRPRPWHQPRP",
    "TEST SYSTEM": "Escherichia coli TOP10",
    "shrunken log2 fold change": 1.75
  },
  {
    "ITEM SEQUENCE": "RRIRRRPPRLPRPRPRPEVIPRP",
    "TEST SYSTEM": "Escherichia coli TOP10",
    "shrunken log2 fold change": -0.0658
  },
  {
    "ITEM SEQUENCE": "RRIRGRPPRLPRPRPRPNHNPRP",
    "TEST SYSTEM": "Escherichia coli TOP10",
    "shrunken log2 fold change": -0.409
  },
  {
    "ITEM SEQUENCE": "RRIRLRPPRLPRPRPRPVGLPRP",
    "TEST SYSTEM": "Escherichia coli TOP10",
    "shrunken log2 fold change": 0.144
  },
  {
    "ITEM SEQUENCE": "RRIRARPPRLPRPRPRPFDYPRP",
    "TEST SYSTEM": "Escherichia coli TOP10",
    "shrunken log2 fold change": -0.245
  },
  {
    "ITEM SEQUENCE": "RRIRVRPPRLPRPRPRPMFQPRP",
    "TEST SYSTEM": "Escherichia coli TOP10",
    "shrunken log2 fold change": -0.267
  },
  {
    "ITEM SEQUENCE": "RRIRIRPPRLPRPRPRPICIPRP",
    "TEST SYSTEM": "Escherichia coli TOP10",
    "shrunken log2 fold change": -0.127
  },
  {
    "ITEM SEQUENCE": "RRIRKRPPRLPRPRPRPNSWPRP",
    "TEST SYSTEM": "Escherichia coli TOP10",
    "shrunken log2 fold change": 0.222
  },
  {
    "ITEM SEQUENCE": "RRIRNRPPRLPRPRPRPCQSPRP",
    "TEST SYSTEM": "Escherichia coli TOP10",
    "shrunken log2 fold change": -0.212
  },
  {
    "ITEM SEQUENCE": "RRIRARPPRLPRPRPRPAGGPRP",
    "TEST SYSTEM": "Escherichia coli TOP10",
    "shrunken log2 fold change": 0.678
  },
  {
    "ITEM SEQUENCE": "RRIRGRPPRLPRPRPRPPVYPRP",
    "TEST SYSTEM": "Escherichia coli TOP10",
    "shrunken log2 fold change": 0.352
  },
  {
    "ITEM SEQUENCE": "RRIRYRPPRLPRPRPRPKGWPRP",
    "TEST SYSTEM": "Escherichia coli TOP10",
    "shrunken log2 fold change": 0.465
  },
  {
    "ITEM SEQUENCE": "RRIRFRPPRLPRPRPRPGHCPRP",
    "TEST SYSTEM": "Escherichia coli TOP10",
    "shrunken log2 fold change": 0.0688
  },
  {
    "ITEM SEQUENCE": "RRIRYRPPRLPRPRPRPWNFPRP",
    "TEST SYSTEM": "Escherichia coli TOP10",
    "shrunken log2 fold change": -0.00304
  },
  {
    "ITEM SEQUENCE": "RRIRKRPPRLPRPRPRPHTEPRP",
    "TEST SYSTEM": "Escherichia coli TOP10",
    "shrunken log2 fold change": 0.0507
  },
  {
    "ITEM SEQUENCE": "RRIRCRPPRLPRPRPRPGADPRP",
    "TEST SYSTEM": "Escherichia coli TOP10",
    "shrunken log2 fold change": 0.484
  },
  {
    "ITEM SEQUENCE": "RRIRGRPPRLPRPRPRPHHPPRP",
    "TEST SYSTEM": "Escherichia coli TOP10",
    "shrunken log2 fold change": 1.21
  },
  {
    "ITEM SEQUENCE": "RRIRYRPPRLPRPRPRPGGDPRP",
    "TEST SYSTEM": "Escherichia coli TOP10",
    "shrunken log2 fold change": 0.137
  },
  {
    "ITEM SEQUENCE": "RRIRCRPPRLPRPRPRPNKQPRP",
    "TEST SYSTEM": "Escherichia coli TOP10",
    "shrunken log2 fold change": -0.201
  },
  {
    "ITEM SEQUENCE": "RRIRKRPPRLPRPRPRPKKEPRP",
    "TEST SYSTEM": "Escherichia coli TOP10",
    "shrunken log2 fold change": 0.00375
  },
  {
    "ITEM SEQUENCE": "RRIRSRPPRLPRPRPRPLASPRP",
    "TEST SYSTEM": "Escherichia coli TOP10",
    "shrunken log2 fold change": 0.0667
  },
  {
    "ITEM SEQUENCE": "RRIRWRPPRLPRPRPRPEPCPRP",
    "TEST SYSTEM": "Escherichia coli TOP10",
    "shrunken log2 fold change": 0.157
  },
  {
    "ITEM SEQUENCE": "RRIRGRPPRLPRPRPRPFDFPRP",
    "TEST SYSTEM": "Escherichia coli TOP10",
    "shrunken log2 fold change": 0.26
  },
  {
    "ITEM SEQUENCE": "RRIRSRPPRLPRPRPRPCWEPRP",
    "TEST SYSTEM": "Escherichia coli TOP10",
    "shrunken log2 fold change": 0.311
  },
  {
    "ITEM SEQUENCE": "RRIRHRPPRLPRPRPRPHENPRP",
    "TEST SYSTEM": "Escherichia coli TOP10",
    "shrunken log2 fold change": -0.0891
  },
  {
    "ITEM SEQUENCE": "RRIRTRPPRLPRPRPRPMCQPRP",
    "TEST SYSTEM": "Escherichia coli TOP10",
    "shrunken log2 fold change": -0.0075
  },
  {
    "ITEM SEQUENCE": "RRIRIRPPRLPRPRPRPICWPRP",
    "TEST SYSTEM": "Escherichia coli TOP10",
    "shrunken log2 fold change": 0.307
  },
  {
    "ITEM SEQUENCE": "RRIRARPPRLPRPRPRPEVFPRP",
    "TEST SYSTEM": "Escherichia coli TOP10",
    "shrunken log2 fold change": 0.401
  },
  {
    "ITEM SEQUENCE": "RRIRIRPPRLPRPRPRPASTPRP",
    "TEST SYSTEM": "Escherichia coli TOP10",
    "shrunken log2 fold change": -0.0836
  },
  {
    "ITEM SEQUENCE": "RRIRCRPPRLPRPRPRPWVKPRP",
    "TEST SYSTEM": "Escherichia coli TOP10",
    "shrunken log2 fold change": -0.352
  },
  {
    "ITEM SEQUENCE": "RRIRMRPPRLPRPRPRPDQLPRP",
    "TEST SYSTEM": "Escherichia coli TOP10",
    "shrunken log2 fold change": 0.391
  },
  {
    "ITEM SEQUENCE": "RRIRKRPPRLPRPRPRPPAIPRP",
    "TEST SYSTEM": "Escherichia coli TOP10",
    "shrunken log2 fold change": 0.657
  },
  {
    "ITEM SEQUENCE": "RRIRVRPPRLPRPRPRPWNQPRP",
    "TEST SYSTEM": "Escherichia coli TOP10",
    "shrunken log2 fold change": 0.0232
  },
  {
    "ITEM SEQUENCE": "RRIRCRPPRLPRPRPRPFPPPRP",
    "TEST SYSTEM": "Escherichia coli TOP10",
    "shrunken log2 fold change": 0.0149
  },
  {
    "ITEM SEQUENCE": "RRIRTRPPRLPRPRPRPEDNPRP",
    "TEST SYSTEM": "Escherichia coli TOP10",
    "shrunken log2 fold change": 0.168
  },
  {
    "ITEM SEQUENCE": "RRIRHRPPRLPRPRPRPWMTPRP",
    "TEST SYSTEM": "Escherichia coli TOP10",
    "shrunken log2 fold change": -0.225
  },
  {
    "ITEM SEQUENCE": "RRIRVRPPRLPRPRPRPKQSPRP",
    "TEST SYSTEM": "Escherichia coli TOP10",
    "shrunken log2 fold change": 0.0123
  },
  {
    "ITEM SEQUENCE": "RRIRHRPPRLPRPRPRPPDNPRP",
    "TEST SYSTEM": "Escherichia coli TOP10",
    "shrunken log2 fold change": -0.0231
  },
  {
    "ITEM SEQUENCE": "RRIRQRPPRLPRPRPRPEWIPRP",
    "TEST SYSTEM": "Escherichia coli TOP10",
    "shrunken log2 fold change": -0.00133
  },
  {
    "ITEM SEQUENCE": "RRIRPRPPRLPRPRPRPDKKPRP",
    "TEST SYSTEM": "Escherichia coli TOP10",
    "shrunken log2 fold change": -0.429
  },
  {
    "ITEM SEQUENCE": "RRIRPRPPRLPRPRPRPVEPPRP",
    "TEST SYSTEM": "Escherichia coli TOP10",
    "shrunken log2 fold change": 0.352
  },
  {
    "ITEM SEQUENCE": "RRIRCRPPRLPRPRPRPHFSPRP",
    "TEST SYSTEM": "Escherichia coli TOP10",
    "shrunken log2 fold change": -0.473
  },
  {
    "ITEM SEQUENCE": "RRIRERPPRLPRPRPRPFIDPRP",
    "TEST SYSTEM": "Escherichia coli TOP10",
    "shrunken log2 fold change": -0.288
  },
  {
    "ITEM SEQUENCE": "RRIRCRPPRLPRPRPRPRTLPRP",
    "TEST SYSTEM": "Escherichia coli TOP10",
    "shrunken log2 fold change": 0.209
  }
]
